Provide the recorded Potency for the entries that follow.
protocol description: Quantitative High-Throughput drug screen in 47 multiple myeloma cell lines against the NCATS MIPE library collection: PE2_PLB cell viability assay (AID 1919869); note: potency is the fitted concentration of half-maximal effect; nearly all actives have a fitted effect of over 35% in size
condition parameters: PE2_PLB myeloma cells viability, ATP luminescence, 48 h; series mostly up to 45.8 µM
Inconclusive results are not listed. The source made the active and inactive calls. Calls come from the whole dose curve; as a rule, active = well fitted cell-killing curve with a large enough effect; inconclusive = small, poorly fitted or top-dose-only effect, or effect the other way; inactive = no such curve, though single readings can be large or run the other way.

Worked set:
COc1cc2nc(-c3ccc(N4CCN(C)CC4)cc3)nc(NCCN3CCOCC3)c2cc1OC :: 0.148 µM (active)
CC1(C)CCC(CN2CCN(c3ccc(C(=O)NS(=O)(=O)c4ccc(NCC5CCOCC5)c([N+](=O)[O-])c4)c(Oc4cnc5[nH]ccc5c4)c3)CC2)=C(c2ccc(Cl)cc2)C1 :: 16.6 µM (active)
Cc1cccc(Nc2nc(-c3ccncc3)cs2)c1 :: 23.5 µM (active)

Fill in: Potency of Clc1ccc(C(c2ccc(Cl)cc2)n2cc[n+](CC(OCc3ccc(Cl)cc3Cl)c3ccc(Cl)cc3Cl)c2)cc1 (centres undefined) is ___
13.2 µM (active)

----------
protocol description: Quantitative High-Throughput drug screen in 47 multiple myeloma cell lines against the NCATS MIPE library collection: ARD_JJKsccE7 cell viability assay (AID 1918929;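 for viability: 100% = DMSO-only wells and 0% = media-only wells without cells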)
condition parameters: ARD myeloma cell line viability, CellTiter-Glo, 48 h; series mostly up to 45.8 µM
Inconclusive results are not listed. Activity calls are given as the source filed them. The call rests on the fitted dose curve; in most records, active means well fitted cell-killing curve with a large enough effect; inconclusive means small, poorly fitted or top-dose-only effect, or effect the other way; inactive means no such curve, though single readings can be large or run the other way.
Return exactly one item of active, inactive

Assay result, entry COc1cc2ncnc(-n3nc(-c4ccccn4)nc3N)c2cc1OC — outcome?
active

Assay result, entry CC(C)C(=O)Oc1ccc(CO)cc1[C@H](CCN(C(C)C)C(C)C)c1ccccc1 — outcome?
inactive

Assay result, entry NC(=O)[C@@H](CCC(F)(F)F)N(Cc1ccc(-c2ncon2)cc1F)S(=O)(=O)c1ccc(Cl)cc1 — outcome?
inactive

----------
protocol description: Quantitative High-Throughput drug screen in 47 multiple myeloma cell lines against the NCATS MIPE library collection: ARP1_JJKsccF8 cell viability assay (AID 1918928; note: potency is the fitted concentration of half-maximal effect; nearly all actives have a fitted effect of over 40% in size)
condition parameters: ARP1 myeloma cells viability, CellTiter-Glo ATP, 48 h; series mostly up to 45.8 µM
Records with an inconclusive call do not appear. Calls of active or inactive are those of the source. The call rests on the fitted dose curve; in most records, active means well fitted cell-killing curve with a large enough effect; inconclusive means small, poorly fitted or top-dose-only effect, or effect the other way; inactive means no such curve, though single readings can be large or run the other way.
measurement kind: Potency

O=C(Nc1cc(Cl)cc2c1[nH]c1cnccc12)c1cccnc1 :: 13.2 µM (active)

Okay, next one:
Fill in: Potency of O=C(Nc1ccccc1-c1cn2c(CN3CCNCC3)csc2n1)c1cnc2ccccc2n1 is ___
23.5 µM (active)

----------
protocol description: qHTS of pediatric cancer cell lines to identify multiple opportunities for drug repurposing: Confirmatory screen for BT-37 cells (AID 1347117);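 note: viability measured after 48 h of compound exposure; nearly all actives have a fitted effect of over 55% in size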
condition parameters: BT-37 pediatric cancer cells, viability; series mostly up to 45.9 µM
Records with an inconclusive call do not appear. Active and inactive are the calls of the source. Calls come from the whole dose curve; as a rule, active = well fitted cell-killing curve with a large enough effect; inconclusive = small, poorly fitted or top-dose-only effect; inactive = no such curve, though single readings can be large or run the other way.
Return exactly one item of 1 (yes) = active, 0 (no) = inactive

CCOc1ccc(Nc2nc(-c3c(C)nc4ccccn34)cs2)cc1 :: 1 (yes)

Assay result, entry Nc1ncnc2c1ncn2[C@@H]1O[C@@H](CO)[C@H](O)[C@H]1O — outcome?
0 (no)

Assay result, entry COc1ccc(-c2coc3cc(O)cc(O)c3c2=O)cc1 — outcome?
0 (no)

Assay result, entry O=C(O)c1ccc(-c2c[nH]c3ncc(-c4ccccc4)cc23)cc1C1CCCC1 — outcome?
0 (no)

Assay result, entry CC(=NNC(=S)N1CCC1)c1ccccn1 — outcome?
0 (no)

Assay result, entry CC1(C)S[C@H]2[C@H](NC(=O)[C@@H](N)c3ccc(O)cc3)C(=O)N2[C@@H]1C(=O)O — outcome?
0 (no)
